biological target: C-C chemokine receptor type 9 (Homo sapiens, UniProt P51686); test: Antagonist activity against CCR9 in human MOLT4 cells assessed as inhibition of human recombinant TECK-induced calcium response pre-treated before TECK stimulation by Flou-4-AM dye based FLIPR assay
Parameter: IC50

Cc1nnc(-c2ccc(S(=O)(=O)Nc3ccc(Cl)cc3C(=O)c3cccnc3)cc2)o1; > 1 µM

Lab note: measured IC50 of Cc1ccc(C(=O)c2cc(Cl)ccc2NS(=O)(=O)c2ccc(C3(C)CCOCC3)cc2)c[n+]1[O-] was < 1 µM

Reported IC50 ( Cc1ncccc1C(=O)c1cc(Cl)ccc1NS(=O)(=O)c1ccc(C(C)(C)C)cc1 ) = < 1 µM

// CC(C)(C)c1ccc(S(=O)(=O)Nc2ccc(Cl)cc2C(=O)c2cccnc2)cc1 : IC50 value = < 1 µM

molecule O=C(c1cccnc1)c1cc(Cl)ccc1NS(=O)(=O)c1ccc(OC(F)(F)F)cc1 , IC50 observed: < 1 µM

---

target: UniProt:P51686; assay: Antagonist activity against CCR9 in human MOLT4 cells assessed as inhibition of human recombinant TECK-induced calcium response pre-treated before TECK stimulation by Flou-4-AM dye based FLIPR assay
pIC50: −log10 of the molar value.
Each entry below carries its recorded pIC50.

These recorded examples may help you get a feel for the data.
CC(C)Oc1ccc(S(=O)(=O)Nc2ccc(Br)cc2C(=O)c2ccncc2)cc1; > 6.00
Cn1nnnc1-c1ccc(S(=O)(=O)Nc2ccc(Cl)cc2C(=O)c2ccncc2)cc1; < 6.00
CC(=O)c1ccc(S(=O)(=O)Nc2ccc(Cl)cc2C(=O)c2ccc(C)nc2)cc1; < 6.00
Cc1ncccc1C(=O)c1cc(Cl)ccc1NS(=O)(=O)c1ccc(OC(C)C)cc1; > 6.00

Read the next record carefully.
Please fill in: pIC50 reported for O=C(c1ccncc1)c1cc(Cl)ccc1NS(=O)(=O)c1ccc(-c2ccccc2)cc1 = > 6.00

---

biological target: C-C chemokine receptor type 9 (Homo sapiens); experiment: Antagonist activity against CCR9 in human MOLT4 cells assessed as inhibition of human recombinant TECK-induced calcium response pre-treated before TECK stimulation by Flou-4-AM dye based FLIPR assay
Parameter: IC50

CCc1ccc(S(=O)(=O)Nc2ccc(Cl)cc2C(=O)c2ccncc2)cc1; < 1000 nM

Lab book: IC50 of O=C(c1cccnc1)c1cc(F)c(F)cc1NS(=O)(=O)c1ccc(N2CCOCC2)cc1 noted as < 1000 nM

IC50 reported for this compound CC(C)(C)c1ccc(S(=O)(=O)Nc2ccc(Cl)cc2C(=O)c2cc[n+]([O-])c(Cl)c2)cc1 : < 1000 nM

---

target: C-C chemokine receptor type 9 (Homo sapiens); test: Antagonist activity against CCR9 in human MOLT4 cells assessed as inhibition of human recombinant TECK-induced calcium response pre-treated before TECK stimulation by Flou-4-AM dye based FLIPR assay
Parameter: IC50

Example entries and their recorded answers appear below.
O=C(c1ccncc1)c1cc(Cl)ccc1NS(=O)(=O)c1ccc(-c2csnn2)cc1; < 1 µM
COc1ccc(S(=O)(=O)Nc2ccc(Cl)cc2C(=O)Nc2ccccc2)cc1; < 1 µM
COc1ccc(S(=O)(=O)Nc2ccc(Cl)cc2C(=O)N2CCNCC2)cc1; > 1 µM
O=C(c1ccncc1)c1cc(Cl)ccc1NS(=O)(=O)c1ccc(Cl)cc1; > 1 µM
CN(C)C(=O)CCc1ccc(S(=O)(=O)Nc2ccc(Cl)cc2C(=O)c2ccncc2)cc1; > 1 µM

Entry C[C@@H]1CN(c2ccc(S(=O)(=O)Nc3ccc(Cl)cc3C(=O)c3cc[n+]([O-])cc3)cc2)C[C@H](C)O1 , IC50 reported as < 1 µM

---

Target: C-C chemokine receptor type 9 (Homo sapiens, UniProt P51686)
Sequence (P51686 whole entry): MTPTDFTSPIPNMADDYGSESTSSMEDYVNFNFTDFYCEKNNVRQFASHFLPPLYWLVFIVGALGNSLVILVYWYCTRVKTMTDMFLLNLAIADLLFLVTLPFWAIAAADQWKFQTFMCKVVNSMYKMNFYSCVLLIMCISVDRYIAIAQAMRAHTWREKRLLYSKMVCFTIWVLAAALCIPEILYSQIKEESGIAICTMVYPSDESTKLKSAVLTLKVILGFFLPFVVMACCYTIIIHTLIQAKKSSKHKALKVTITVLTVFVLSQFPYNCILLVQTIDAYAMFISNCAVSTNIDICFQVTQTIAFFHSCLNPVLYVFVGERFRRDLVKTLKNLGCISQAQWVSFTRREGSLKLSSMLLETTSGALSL
Assay: Antagonist activity against CCR9 in human MOLT4 cells assessed as inhibition of human recombinant TECK-induced calcium response pre-treated before TECK stimulation by Flou-4-AM dye based FLIPR assay
Entries and their IC50 values follow.

Worked examples follow.
CC(C)(c1ccc(S(=O)(=O)Nc2ccc(Cl)cc2C(=O)c2ccncc2)cc1)c1ncco1; < 1000 nM
CN(C)C(=O)C(C)(C)c1ccc(S(=O)(=O)Nc2ccc(Cl)cc2C(=O)c2ccncc2)cc1; > 1000 nM
Cc1ccc(C(=O)c2cc(Cl)ccc2NS(=O)(=O)c2ccc(C(C)(C)c3ncco3)cc2)c[n+]1[O-]; < 1000 nM

Lab note: measured IC50 of Cc1ccc(C(=O)c2cc(Cl)ccc2NS(=O)(=O)c2ccc(N3C[C@@H](C)O[C@@H](C)C3)cc2)c[n+]1[O-] was < 1000 nM

---

pIC50 reference
target: C-C chemokine receptor type 9 (Homo sapiens); experiment: Antagonist activity against CCR9 in human MOLT4 cells assessed as inhibition of human recombinant TECK-induced calcium response pre-treated before TECK stimulation by Flou-4-AM dye based FLIPR assay
pIC50: −log10 of the molar value.

Here is how some compounds turned out for pIC50.
O=C(c1ccncc1)c1cc(Cl)ccc1NS(=O)(=O)c1ccc(-c2cncnc2)cc1; < 6.00
CC(C)Oc1ccc(S(=O)(=O)Nc2ccc(Cl)cc2C(=O)c2cccnc2)cc1; > 6.00
CC(C)(C)c1ccc(S(=O)(=O)Nc2ccc(Cl)cc2C(=O)c2ccccn2)cc1; > 6.00
CC(C)(c1ccc(S(=O)(=O)Nc2ccc(Cl)cc2C(=O)c2ccc[n+]([O-])c2)cc1)c1ncco1; > 6.00
O=C(c1ccncc1)c1cc(Cl)ccc1NS(=O)(=O)c1ccc(-c2nccs2)cc1; < 6.00
Cc1nnc(-c2ccc(S(=O)(=O)Nc3ccc(Cl)cc3C(=O)c3ccccn3)cc2)o1; < 6.00

Let us move to another entry and its pIC50.
Entry CC(C)(C)c1ccc(S(=O)(=O)Nc2ccc(Cl)cc2C(=O)c2cc[nH]n2)cc1 ; assay system C-C chemokine receptor type 9 (Homo sapiens); pIC50 recorded at > 6.00

---

Target: C-C chemokine receptor type 9 (Homo sapiens)
Sequence (P51686 whole entry): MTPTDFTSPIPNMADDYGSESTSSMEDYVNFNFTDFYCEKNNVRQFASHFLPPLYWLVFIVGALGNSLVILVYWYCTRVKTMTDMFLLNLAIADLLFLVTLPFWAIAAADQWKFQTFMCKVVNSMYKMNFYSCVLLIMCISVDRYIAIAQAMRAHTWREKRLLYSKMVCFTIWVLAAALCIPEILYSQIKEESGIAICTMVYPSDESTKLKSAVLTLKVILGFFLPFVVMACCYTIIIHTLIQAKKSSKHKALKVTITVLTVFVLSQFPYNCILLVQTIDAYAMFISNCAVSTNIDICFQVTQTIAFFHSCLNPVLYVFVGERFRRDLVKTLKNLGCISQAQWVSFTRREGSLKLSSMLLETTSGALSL
Assay: Antagonist activity against CCR9 in human MOLT4 cells assessed as inhibition of human recombinant TECK-induced calcium response pre-treated before TECK stimulation by Flou-4-AM dye based FLIPR assay
pIC50: −log10 of the molar value.
Parameter: pIC50

Just so you know, measured pIC50 for O=C(c1ccncc1)c1cc(Cl)ccc1NS(=O)(=O)c1ccc(N2CCN(CC(F)(F)F)CC2)cc1 came out at < 6.00

Field pIC50 (entry CC(C)(C)c1ccc(S(=O)(=O)Nc2ccc(Br)cc2C(=O)c2ccncc2)cc1 ) reads > 6.00

---

biological target: C-C chemokine receptor type 9 (Homo sapiens, UniProt P51686); experiment: Antagonist activity against CCR9 in human MOLT4 cells assessed as inhibition of human recombinant TECK-induced calcium response pre-treated before TECK stimulation by Flou-4-AM dye based FLIPR assay
pIC50: −log10 of the molar value.
Parameter: pIC50

COc1ccc(S(=O)(=O)Nc2ccc(Br)cc2C(=O)c2ccncc2)cc1; < 6.00

The recorded pIC50 with C-C chemokine receptor type 9 (Homo sapiens, UniProt P51686) for CC(C)(C)c1ccc(S(=O)(=O)Nc2ccc(F)c(F)c2C(=O)c2ccncc2)cc1 was > 6.00

Measured pIC50 (C-C chemokine receptor type 9 (Homo sapiens, UniProt P51686)), entry CC(C)Oc1ccc(S(=O)(=O)Nc2ccc(Cl)cc2C(=O)c2ccncc2)cc1 : > 6.00

# lookup: Cc1c(C(=O)c2cc(Cl)ccc2NS(=O)(=O)c2ccc(C(C)(C)C)cc2)ccc[n+]1[O-] on C-C chemokine receptor type 9 (Homo sapiens, UniProt P51686), pIC50 = > 6.00

Reading of pIC50 for CC(C)(c1ncco1)c1ccccc1S(=O)(=O)Nc1ccc(Cl)cc1C(=O)c1ccncc1 with C-C chemokine receptor type 9 (Homo sapiens, UniProt P51686): > 6.00

Entry CC1(c2ccc(S(=O)(=O)Nc3ccc(Cl)cc3C(=O)c3ccncc3)cc2)OCCO1 under C-C chemokine receptor type 9 (Homo sapiens, UniProt P51686) had pIC50 of > 6.00

Lab note: molecule O=C(c1ccncc1)c1cc(Cl)ccc1NS(=O)(=O)c1ccc(N2CCCC2)cc1 tested on C-C chemokine receptor type 9 (Homo sapiens, UniProt P51686); recorded pIC50 was > 6.00

Record Cn1nncc1C(=O)c1cc(Cl)ccc1NS(=O)(=O)c1ccc(C(C)(C)C)cc1 / C-C chemokine receptor type 9 (Homo sapiens, UniProt P51686), pIC50 recorded as > 6.00

Reported C-C chemokine receptor type 9 (Homo sapiens, UniProt P51686) pIC50 for item CC(C)(c1ccc(S(=O)(=O)Nc2ccc(Cl)cc2C(=O)c2cc[n+]([O-])cc2)cc1)c1ncco1 was > 6.00

Here CC(C)(C)c1ccc(S(=O)(=O)Nc2ccc(F)c(F)c2C(=O)c2cccnc2)cc1 was tested on C-C chemokine receptor type 9 (Homo sapiens, UniProt P51686), and its pIC50 came to > 6.00

The measured pIC50 that CC(=O)c1ccc(S(=O)(=O)Nc2ccc(Cl)cc2C(=O)c2ccncc2)cc1 showed for C-C chemokine receptor type 9 (Homo sapiens, UniProt P51686) is < 6.00

Observed pIC50, C-C chemokine receptor type 9 (Homo sapiens, UniProt P51686), O=C(c1ccncc1)c1cc(Cl)ccc1NS(=O)(=O)c1ccc(-c2cccnc2F)cc1 : < 6.00
